Target: T1, human IL-1RAcP on 293T/17-FR cells (human, UniProt Q9NPH3 21-570)
T1 sequence (looked up): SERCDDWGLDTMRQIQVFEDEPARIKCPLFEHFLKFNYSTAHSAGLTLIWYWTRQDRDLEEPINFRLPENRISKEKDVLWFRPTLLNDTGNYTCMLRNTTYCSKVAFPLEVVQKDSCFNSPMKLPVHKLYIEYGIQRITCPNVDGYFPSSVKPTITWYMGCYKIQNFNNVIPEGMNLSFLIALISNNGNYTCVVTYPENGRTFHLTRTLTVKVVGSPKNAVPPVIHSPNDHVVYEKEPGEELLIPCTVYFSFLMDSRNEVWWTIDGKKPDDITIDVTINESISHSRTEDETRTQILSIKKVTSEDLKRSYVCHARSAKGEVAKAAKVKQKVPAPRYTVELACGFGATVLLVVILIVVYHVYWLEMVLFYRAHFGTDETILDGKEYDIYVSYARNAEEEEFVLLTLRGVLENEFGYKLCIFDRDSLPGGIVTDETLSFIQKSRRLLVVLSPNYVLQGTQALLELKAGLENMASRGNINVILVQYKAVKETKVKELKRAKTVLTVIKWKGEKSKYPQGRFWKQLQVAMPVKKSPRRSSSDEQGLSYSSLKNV
Experiment: cell-based or functional assay
REPORTED_PROPERTY: primary supernatant functional assay (% inh.), NF-kB luciferase reporter (%)
The response must be a number in % with no trailing unit.

Below: 3 binders and their reported primary supernatant functional assay (% inh.), NF-kB luciferase reporter.
BINDER | VALUE_MEASURED
P013.S.01.B.E06 (antibody, V domains shown, rabbit monoclonal antibody; also called P013.A.00030.F07) VH: QSLEESGGDLVKPGASLTLTCTASGFSFSSTYYMCWVRQAPGKGLEWIACIYAGSSGSTYYASWAKGRFTISKTSSTTVTLQMTSLTAADTATYFCARVDGSSSGSWDLWGPGTLVTVSS VL: AIEMTQTPSSVSAAVGGTVTINCQASQNIYSNLAWYQQKPGQRPKLLIYAASLLASGVPSRFKGNGSGTEYTLTISDLESADAATYYCQGAVYSGNTEWAFGGGTEVVVK | 72
P013.S.02.B.A05 (antibody, V domains shown, rabbit monoclonal antibody; also called P013.A.00031.D11) VH: QEQLVESGGGLVQPEGSLTLTCQASGFTFSSYYVICWVRQAPGKGLEWIACIGTGDGLTYYASWAKGRFTISKTSSTTVTLQMTSLTAADTATYFCARDRYATVSGILNLWGPGTLVTVSS VL: DVVMTQTPASVEAAVGGTVTIKCQASQNIYSNCAWYQQKLGQRPKLLIYYVSTLESGVPSRFEGSGYGTEFTLTISDLQSADAATYYCQYTYDSSSSTSWAFGGGTEVVVK | 80
P013.S.01.B.C03 (antibody, V domains shown, rabbit monoclonal antibody; also called P013.A.00133.D11) VH: QSVEESGGRLVTPGTPLTLTCTVSGIDLSNYAMSWVRQAPGKGLEWIGSVISGGSTYYATWARGRFTISKSSTTVDLKMTSLTTEDTATYFCARGCPGYNGDKYTFDLWGPGTLVTVSS VL: AFEMTQTPSSVSEPVGGTVTIKCQASQSIYNYLSWYQQKPGQRPKLLIYRASTLASGVPSRFKGSGSGTEFTLTISGVESADAATYYCQQGATSYDIENPFGGGTEVVVK | 83

Request: Give reported primary supernatant functional assay (% inh.), NF-kB luciferase reporter value for P013.S.01.B.F03 (antibody, V domains shown, rabbit monoclonal antibody; also called P013.A.00025.F02) VH: LEQSGGGAEGGLVKPGGSLELCCKASGFSLGSSYWICWVRQAPGKGLEWIGCIYAGSSGITYYASWVSGRFTLSRDIDQSTGCLQLNSLTAADTAMYYCARDIYASTSGYDLWGQGTLVTVSS VL: ALVMTQTPSPVSAAVGGTVTINCQASEDIYSNLAWFQQKPGQPPKLLIYQASTLASGVPSRFSGSGSGTEFTLTISGLQSDDAAAYYCLGVCTYIGADNTLYNTFGGGTEVVVK
Response: 102

Ref: patent US20190106487A1
